Species on record: Homo sapiens
Assay: Selectivity ratio of IC50 for human CYP11B2 to IC50 for human CYP11B1
Here the recorded Ratio IC50 is given for each entry.
MEASURED ENDPOINT: Ratio IC50

INSERT INTO assay_data (entry_smiles, measured_endpoint, measured_result) VALUES
  ('c1coc(-c2ccc(Cn3ccnc3)cn2)c1', 'Ratio IC50', 31),
  ('Clc1ccc(-c2ccc(Cn3ccnc3)cn2)s1', 'Ratio IC50', 2.6),
  ('Fc1ccccc1-c1ccc(Cn2ccnc2)cn1', 'Ratio IC50', 24),
  ('Fc1ccc(-c2ccc(Cn3ccnc3)cn2)cc1', 'Ratio IC50', 10),
  ('c1coc(-c2cc(Cn3ccnc3)cnc2-c2ccco2)c1', 'Ratio IC50', 29),
  ('Clc1ncc(Cn2ccnc2)cc1-c1cccs1', 'Ratio IC50', 6),
  ('c1csc(-c2ccc(Cn3ccnc3)cn2)c1', 'Ratio IC50', 17),
  ('c1ccc2c(-c3ccc(Cn4ccnc4)cn3)cncc2c1', 'Ratio IC50', 10),
  ('c1cn(Cc2ccc(-c3ccoc3)nc2)cn1', 'Ratio IC50', 37),
  ('c1ccc2c(-c3ccc(Cn4ccnc4)cn3)csc2c1', 'Ratio IC50', 29),
  ('Nc1ccccc1-c1ccc(Cn2ccnc2)cn1', 'Ratio IC50', 21),
  ('Brc1ncccc1Cn1ccnc1', 'Ratio IC50', 15),
  ('Nc1ccc(-c2ccc(Cn3ccnc3)cn2)cc1', 'Ratio IC50', 5),
  ('c1ccc2sc(-c3ccc(Cn4ccnc4)cn3)cc2c1', 'Ratio IC50', 1);
